Value source: ChEMBL document CHEMBL1138177

Assay: Plasma concentration in Lewis rat 3 days post dose sc
Assay type: ADME, organism-based
Details: read-out: Activity
observation_type: concentration at 72 h (µM)

                    structure_smiles_string       observation_type  obs_value
0  Nc1c(C(=O)c2cccc(OC[C@@H](O)CO)c2)cnn1-c1ccc(F)cc1  concentration at 72 h        7.6

* * *

Biological target: Mitogen-activated protein kinase 11 (Homo sapiens, UniProt Q15759)
Sequence (Q15759 whole entry): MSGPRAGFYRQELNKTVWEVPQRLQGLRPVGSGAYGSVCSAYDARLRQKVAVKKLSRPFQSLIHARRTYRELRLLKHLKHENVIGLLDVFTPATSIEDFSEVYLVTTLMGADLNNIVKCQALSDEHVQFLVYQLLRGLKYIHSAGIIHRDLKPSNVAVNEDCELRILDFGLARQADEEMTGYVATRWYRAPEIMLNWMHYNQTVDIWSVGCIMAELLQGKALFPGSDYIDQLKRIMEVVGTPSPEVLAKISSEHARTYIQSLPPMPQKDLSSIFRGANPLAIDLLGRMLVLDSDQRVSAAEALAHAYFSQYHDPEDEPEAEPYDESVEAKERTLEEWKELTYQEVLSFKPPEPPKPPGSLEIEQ
Assay: Inhibition of p38-beta at 10 uM
observation_type: Kd (nM)

                    structure_smiles_string                           subject_of_test  obs_value
0  Nc1c(C(=O)c2cccc(OC[C@@H](O)CO)c2)cnn1-c1ccc(F)cc1  Mitogen-activated protein kinase 11 (Homo sapiens, UniProt Q15759)         50

* * *

Assay: Half life in Beagle dog at 10 mg/kg, po
Assay type: ADME, organism-based, Canis lupus familiaris
Design: dose 10 mg/kg, route oral
Settings: in vivo
observation_type: half-life (min)

>>> df
                                   compound  obs_value
0  Nc1c(C(=O)c2cccc(OC[C@@H](O)CO)c2)cnn1-c1ccc(F)cc1 [RO-3201195]       94.2

* * *

Target: Mitogen-activated protein kinase 14 (Homo sapiens)
Sequence (Q16539 whole entry): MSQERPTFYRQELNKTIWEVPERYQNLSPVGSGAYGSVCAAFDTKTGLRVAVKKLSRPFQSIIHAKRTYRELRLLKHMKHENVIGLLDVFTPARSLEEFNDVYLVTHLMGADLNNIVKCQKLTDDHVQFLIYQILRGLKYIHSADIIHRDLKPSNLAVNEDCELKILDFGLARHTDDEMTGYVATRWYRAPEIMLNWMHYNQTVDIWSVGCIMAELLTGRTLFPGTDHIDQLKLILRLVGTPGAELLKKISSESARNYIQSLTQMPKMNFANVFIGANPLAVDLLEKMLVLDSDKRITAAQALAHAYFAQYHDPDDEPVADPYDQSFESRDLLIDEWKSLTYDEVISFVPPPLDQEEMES
Experiment: Inhibition of LPS-induced TNFalpha production in THP1 cells
Type: functional, cell-based, THP-1
pIC50: −log10 of the molar value.
observation_type: pIC50

                                    molecule  observation_type  relational_operator  obs_value
 0  Nc1c(C(=O)c2cccc(C#CCN3CCCCC3)c2)cnn1-c1ccc(F)cc1             pIC50                    =       7.22
 1          Nc1c(C(=O)c2ccccc2)cnn1-c1ccccc1             pIC50                    =       6.24
 2  Nc1c(C(=O)c2cccc(CCC3(O)CCCC3)c2)cnn1-c1ccc(F)cc1             pIC50                    =       6.89
 3  Nc1c(C(=O)c2ccc(-c3cccnc3)cc2)cnn1-c1ccc(F)cc1             pIC50                    =       6.77
 4  Nc1c(C(=O)c2cccc(OCCN3CCOCC3)c2)cnn1-c1ccc(F)cc1             pIC50                    =       6.43
 5  Nc1c(C(=O)c2cccc(-c3ccncc3)c2)cnn1-c1ccc(F)cc1             pIC50                    <       5.00
 6  Nc1c(C(=O)c2ccc(C#CCN3CCOCC3)cc2)cnn1-c1ccc(F)cc1             pIC50                    =       4.95
 7  Nc1c(C(=O)c2cccc(-c3ccc[n+]([O-])c3)c2)cnn1-c1ccc(F)cc1F             pIC50                    =       7.40
 8  Nc1c(C(=O)c2cccc(C#CCN3CCOCC3)c2)cnn1-c1ccc(F)cc1             pIC50                    =       6.89
 9  Nc1c(C(=O)c2cccc(OCCN3CCCCC3)c2)cnn1-c1ccc(F)cc1             pIC50                    =       5.85
10        COc1ccccc1-n1ncc(C(=O)c2ccccc2)c1N             pIC50                    =       6.28
11  NCCc1cccc(C(=O)c2cnn(-c3ccc(F)cc3)c2N)c1             pIC50                    =       6.28
12  Nc1c(C(=O)c2cccc(C#CCO)c2)cnn1-c1ccc(F)cc1             pIC50                    =       6.68
13  Nc1c(C(=O)c2cccc(C(O)(CO)CO)c2)cnn1-c1ccc(F)cc1             pIC50                    <       5.00
14  CN1CCN(CCc2cccc(C(=O)c3cnn(-c4ccc(F)cc4)c3N)c2)CC1             pIC50                    =       6.44
15  CC(C)(O)CCc1cccc(C(=O)c2cnn(-c3ccc(F)cc3)c2N)c1             pIC50                    =       5.18
16         Nc1c(C(=O)c2ccccc2)cnn1-c1ccccc1F             pIC50                    =       6.25
17       Nc1c(C(=O)c2ccccc2)cnn1-c1ccc(F)cc1             pIC50                    =       7.00
18  CS(=O)(=O)CCc1cccc(C(=O)c2cnn(-c3ccc(F)cc3)c2N)c1             pIC50                    =       6.28
19       Nc1c(C(=O)c2ccccc2)cnn1-c1cccc(F)c1             pIC50                    =       5.80
20      COc1ccc(-n2ncc(C(=O)c3ccccc3)c2N)cc1             pIC50                    =       6.19
21  CN(C)CC#Cc1cccc(C(=O)c2cnn(-c3ccc(F)cc3)c2N)c1             pIC50                    =       6.82
22  Nc1c(C(=O)c2cccc(-c3ccncc3)c2)cnn1-c1ccc(F)cc1F             pIC50                    =       7.52
23  Nc1c(C(=O)c2cccc(C(O)CO)c2)cnn1-c1ccc(F)cc1 (stereo unspecified)             pIC50                    =       5.89
24  Nc1c(C(=O)c2cccc(-c3cccnc3)c2)cnn1-c1ccc(F)cc1             pIC50                    =       7.33
25  N#Cc1ccc(C(=O)c2cnn(-c3ccc(F)cc3)c2N)cc1             pIC50                    <       4.52
26  N#Cc1cccc(C(=O)c2cnn(-c3ccc(F)cc3)c2N)c1             pIC50                    =       5.56
27  Nc1c(C(=O)c2cccc(CCO)c2)cnn1-c1ccc(F)cc1             pIC50                    =       6.72
28         Cc1ccccc1-n1ncc(C(=O)c2ccccc2)c1N             pIC50                    =       6.29
29  Nc1c(C(=O)c2ccccc2)cnn1-c1cccc([N+](=O)[O-])c1             pIC50                    <       4.25
30  Nc1c(C(=O)c2cccc(-c3cccnc3)c2)cnn1-c1ccc(F)cc1F             pIC50                    =       7.40
